- assayRemarks: Cmax in ICR mouse at 50 mg/kg, po measured upto 24 hrs by LC-MS/MS analysis
- Type: ADME, organism-based
- Set-up: route oral, dose 50 mg/kg, time <=24
- assaySetup: in vivo
measuredEndpoint: Cmax (ng/mL)

CN1CCN(c2nc3ncc(Cl)cc3n3cnnc23)CC1 4630

(I) CN1CCN(c2nc3ccc(Cl)cc3n3cnnc23)CC1
(II) CNC1CN(c2nc3ncc(Br)cc3n3nnnc23)C1
// which entry reports the smaller Cmax, I or II ? Write down the label of the entry you select.
I
(I: 676 ng/mL, II: 7690 ng/mL)

---

- targetUnderTest: Histamine H4 receptor (Mus musculus)
- Sequence (Q91ZY2 whole entry): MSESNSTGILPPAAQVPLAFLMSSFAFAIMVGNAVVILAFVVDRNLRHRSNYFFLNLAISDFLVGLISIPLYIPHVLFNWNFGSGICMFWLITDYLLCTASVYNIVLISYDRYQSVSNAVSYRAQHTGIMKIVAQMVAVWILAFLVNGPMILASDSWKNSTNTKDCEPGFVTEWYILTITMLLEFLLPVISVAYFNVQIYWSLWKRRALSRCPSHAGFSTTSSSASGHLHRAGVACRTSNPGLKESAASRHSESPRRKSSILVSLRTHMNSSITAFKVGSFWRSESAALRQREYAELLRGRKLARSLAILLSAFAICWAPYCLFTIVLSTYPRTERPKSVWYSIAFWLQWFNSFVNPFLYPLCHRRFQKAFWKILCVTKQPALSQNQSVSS
- assayRemarks: Antagonist activity at recombinant mouse histamine H4 receptor expressed in CHO-K1 cells assessed as inhibition of R-alpha-methylhistamine induced stimulation of [35S]-GTPgammaS binding by scintillation proximity assay
- Assay type: functional, cell membranes, Cell membrane
measuredEndpoint: IC50 (nM)
Unit nM implied. Number only.

get_value(item= CNC1CN(c2nc3ncc(Br)cc3n3nnnc23)C1 , readout=IC50) returns 690

---

- assayRemarks: Intrinsic clearance in human liver microsomes at 5 uM incubated upto 30 mins in presence of NADPH by UPLC-UV analysis
- Assay type: ADME, Microsome
- assaySetup: read-out: CLH
measuredEndpoint: microsomal CLint at 5 µM (µL/min/mg)

Here are 3 molecules together with their reported answers.
molecule	measuredEndpoint	unitLabel	measuredValue
CN1CCN(c2nc3nc(OCC(F)(F)F)c(Cl)cc3n3cnnc23)CC1	microsomal CLint at 5 µM	µL/min/mg	5.72
CN1CCN(c2nc3ccc([N+](=O)[O-])cc3n3cnnc23)CC1	microsomal CLint at 5 µM	µL/min/mg	2.63
CN1CCN(c2nc3ncc(Br)cc3n3cnnc23)CC1	microsomal CLint at 5 µM	µL/min/mg	1.64

(a) CN1CCN(c2nc3ncccc3n3cnnc23)CC1
(b) CN1CCN(c2nc3ccccc3n3cnnc23)CC1
Between item a and item b , which reported microsomal CLint at 5 µM is smaller? Output the label that corresponds to your choice.
a

(a) CN1CCN(c2nc3ncc(C#N)cc3n3cnnc23)CC1
(b) CN1CCN(c2nc3ncc(C(F)(F)F)cc3n3cnnc23)CC1
# returns the entry with the larger microsomal CLint at 5 µM; inputs a and b # respond with the chosen item's label
a
(a: 3.49 µL/min/mg, b: 1.31 µL/min/mg)

(A) CCOc1nc2nc(N3CCN(C)CC3)c3nncn3c2cc1Cl
(B) CN1CCN(c2nc3nc(C#N)c(Cl)cc3n3cnnc23)CC1
Of A and B , which shows the smaller microsomal CLint at 5 µM value? Output the label that corresponds to your choice.
B

(I) CN1CCN(c2nc3ncc(I)cc3n3cnnc23)CC1
(II) CN1CCN(C(=O)c2cc3cc(Cl)ccc3[nH]2)CC1 [JNJ-7777120]
(III) CN1CCN(c2nc3ncc(Cl)cc3n3cnnc23)CC1
Put the entries in order of microsomal CLint at 5 µM, starting with the largest number. Put the labels in the requested order and list them out.
II, I, III

(A) Cc1c(Br)cnc2nc(N3CCN(C)CC3)c3nncn3c12
(B) CN1CCN(c2nc3ccc(Cl)cc3n3cnnc23)CC1
Please choose the item with the lower microsomal CLint at 5 µM value from this pair: A and B Which one? Tell me its label.
A
(A: 3.84 µL/min/mg, B: 5.83 µL/min/mg)

(P) Cc1cnc2nc(N3CCN(C)CC3)c3nncn3c2c1
(Q) CN1CCN(c2nc3nc(Cl)c(Cl)cc3n3cnnc23)CC1
(R) Cc1ccc2nc(N3CCN(C)CC3)c3nncn3c2c1
Rank by microsomal CLint at 5 µM (largest to smallest). Returns: the labels arranged in the requested order.
R, P, Q

---

- assayRemarks: Tmax in ICR mouse at 10 mg/kg, po measured upto 24 hrs by LC-MS/MS analysis
- Format: ADME, organism-based
- assaySetup: in vivo
measuredEndpoint: Tmax (min)
# number only, unit min dropped from output

Reported Tmax for CNC1CN(c2nc3ncc(Br)cc3n3nnnc23)C1 was 30

---

- assayRemarks: Solubility of compound in SGF at pH 1.2 incubated for 2 hrs by UPLC-UV analysis
- Assay type: physicochemical
measuredEndpoint: solubility at 2 h (µg/mL)

CN1CCN(c2nc3ncc(C#N)cc3n3cnnc23)CC1 1740
CN1CCN(C(=O)c2cc3cc(Cl)ccc3[nH]2)CC1 1410

(1) CN1CCN(c2nc3ccc([N+](=O)[O-])cc3n3cnnc23)CC1
(2) CN1CCN(c2nc3ncc(I)cc3n3cnnc23)CC1
Which item exceeds the other in solubility at 2 h, 1 or 2 ? State your choice using its label.
1

---

- assayRemarks: Solubility of compound in FaSSIF at pH 6.5 incubated for 0.5 hrs by UPLC-UV analysis
measuredEndpoint: solubility at 0.5 h (µg/mL)

Cc1c(Br)cnc2nc(N3CCN(C)CC3)c3nncn3c12 583
CN1CCN(c2nc3ccc(Cl)cc3n3cnnc23)CC1 227
CN1CCN(c2nc3nc(Cl)c(Cl)cc3n3cnnc23)CC1 163
Cc1cnc2nc(N3CCN(C)CC3)c3nncn3c2c1 1900

(a) Cc1ccc2nc(N3CCN(C)CC3)c3nncn3c2c1
(b) CN1CCN(c2nc3ncc(I)cc3n3cnnc23)CC1
Hey, between a and b which has a smaller measured solubility at 0.5 h? Refer to your chosen entry by its label in the reply.
b

---

- assayRemarks: Solubility of compound in FaSSIF at pH 6.5 incubated for 0.5 hrs by UPLC-UV analysis
measuredEndpoint: solubility at 0.5 h (µg/mL)

(A) CN1CCN(c2nc3ncc(C(F)(F)F)cc3n3cnnc23)CC1
(B) CN1CCN(C(=O)c2cc3cc(Cl)ccc3[nH]2)CC1
Hi there! Just curious which has the higher solubility at 0.5 h between A and B . Answer format: the label of the selected item.
A
(A: 1230 µg/mL, B: 378 µg/mL)

---

- assayRemarks: AUC (all) in ICR mouse at 2 mg/kg, po measured upto 24 hrs by LC-MS/MS analysis
- Assay type: ADME, organism-based
- Design: route oral, dose 2 mg/kg, time <=24
- assaySetup: in vivo
measuredEndpoint: AUC at 24 h (ng·h/mL)
The answer is to be given in ng·h/mL; state only the numeric part.

AUC at 24 h reported for this compound CNC1CN(c2nc3ncc(Br)cc3n3nnnc23)C1 : 251

---

- assayRemarks: Intrinsic clearance in CD1 mouse liver microsomes at 5 uM incubated upto 30 mins in presence of NADPH by UPLC-UV analysis
- Type: ADME, Microsome
- assaySetup: read-out: CLH
measuredEndpoint: microsomal CLint at 5 µM (µL/min/mg)

compound	measuredValue
CN1CCN(c2nc3ncc(Br)cc3n3cnnc23)CC1	3.13

(P) CN1CCN(C(=O)c2cc3cc(Cl)ccc3[nH]2)CC1 [JNJ-7777120]
(Q) CN1CCN(c2nc3nc(C#N)c(Cl)cc3n3cnnc23)CC1
Sorting by microsomal CLint at 5 µM in descending order, would P or Q appear first? Kindly give the label for the entry you pick.
P

(A) CN1CCN(c2nc3nc(Cl)c(Cl)cc3n3cnnc23)CC1
(B) CN1CCN(c2nc3ncc(C(F)(F)F)cc3n3cnnc23)CC1
Which of these two has the smaller recorded microsomal CLint at 5 µM: A or B ? Let me know the label of the one you choose.
B
(B: 2.05 µL/min/mg, A: 5.28 µL/min/mg)

(a) CN1CCN(c2nc3nc(OCC(F)(F)F)c(Cl)cc3n3cnnc23)CC1
(b) CN1CCN(c2nc3ncc(C#N)cc3n3cnnc23)CC1
Between a and b , whose recorded microsomal CLint at 5 µM is greater? # respond with the chosen item's label
a
(a: 4.94 µL/min/mg, b: 2.8 µL/min/mg)

---

- assayRemarks: Intrinsic clearance in CD1 mouse liver microsomes at 5 uM incubated upto 30 mins in presence of NADPH by UPLC-UV analysis
- Assay type: ADME, Microsome
- assaySetup: read-out: CLH
measuredEndpoint: microsomal CLint at 5 µM (µL/min/mg)

(A) CN1CCN(c2nc3ccccc3n3cnnc23)CC1
(B) Cc1ccc2nc(N3CCN(C)CC3)c3nncn3c2c1
Dear colleague, could you let me know whether A or B has the lower recorded microsomal CLint at 5 µM? Thanks. Answer = label.
B
(B: 23.3 µL/min/mg, A: 73.1 µL/min/mg)

(a) CN1CCN(c2nc3ccc([N+](=O)[O-])cc3n3cnnc23)CC1
(b) Cc1cnc2nc(N3CCN(C)CC3)c3nncn3c2c1
Of the pair a and b , name the member with the lesser recorded microsomal CLint at 5 µM. // output: label of the selected item
b
(b: 2.91 µL/min/mg, a: 10.4 µL/min/mg)

(a) CCOc1nc2nc(N3CCN(C)CC3)c3nncn3c2cc1Cl
(b) CN1CCN(c2nc3ncccc3n3cnnc23)CC1
Field: entry with larger microsomal CLint at 5 µM (options a / b ). Select an item and report its label.
b

(P) CN1CCN(c2nc3cccnc3n3cnnc23)CC1
(Q) CN1CCN(c2nc3ncc(I)cc3n3cnnc23)CC1
Parameter check: reported microsomal CLint at 5 µM is higher for which label, P or Q ? Give the label of your selection.
P
(P: 50.2 µL/min/mg, Q: 3.74 µL/min/mg)
